- system.tested: Sodium-dependent noradrenaline transporter (Homo sapiens, UniProt P23975)
- Sequence (P23975 whole entry): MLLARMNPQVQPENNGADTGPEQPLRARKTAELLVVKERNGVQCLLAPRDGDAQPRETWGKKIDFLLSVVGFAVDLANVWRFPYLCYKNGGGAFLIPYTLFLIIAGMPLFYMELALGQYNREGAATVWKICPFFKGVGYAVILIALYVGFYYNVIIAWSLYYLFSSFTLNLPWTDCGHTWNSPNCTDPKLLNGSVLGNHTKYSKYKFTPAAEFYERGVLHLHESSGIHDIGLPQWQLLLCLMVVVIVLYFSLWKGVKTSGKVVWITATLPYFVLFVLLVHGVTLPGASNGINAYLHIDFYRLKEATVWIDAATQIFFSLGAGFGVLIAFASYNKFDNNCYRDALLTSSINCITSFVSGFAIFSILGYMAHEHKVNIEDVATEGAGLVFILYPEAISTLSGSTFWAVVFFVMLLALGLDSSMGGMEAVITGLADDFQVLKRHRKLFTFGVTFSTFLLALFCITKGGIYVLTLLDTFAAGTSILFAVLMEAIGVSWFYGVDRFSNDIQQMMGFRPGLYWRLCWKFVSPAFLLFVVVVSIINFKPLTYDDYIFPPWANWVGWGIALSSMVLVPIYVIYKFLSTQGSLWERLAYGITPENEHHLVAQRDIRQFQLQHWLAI
- test.details: Inhibition of norepinephrine reuptake at human NET expressed in MDCK-Net6 cells at 1000 nM
- Assay type: cell-based
reported.endpoint: inhibition (%)
All answers are understood in %, so give the number only.

compound | system.tested | inhibition / %
O[C@@H](CN1CCNCC1)[C@H](c1ccccc1)n1ccc2ccccc21 (racemic) | Sodium-dependent noradrenaline transporter (Homo sapiens, UniProt P23975) | 34

// lookup inhibition for NC[C@H](O)[C@H](c1ccccc1)n1ccc2cc(F)ccc21 (racemic)
32

May I ask what inhibition has been recorded for CC(C)NC[C@H](O)[C@H](c1ccccc1)n1ccc2ccccc21 (racemic) ?
13

// inhibition lookup, key: CCN(C)C[C@H](O)[C@H](c1ccccc1)n1ccc2ccccc21 (racemic)
38

What measured inhibition goes with CCNC[C@H](O)[C@H](c1ccccc1)n1ccc2cc(F)ccc21 (racemic) ?
11

The reported measurements were obtained from ChEMBL document CHEMBL1155305.
